STUDY TARGET: human 5-HT6 receptor (Homo sapiens (Human), UniProt P50406)
Sequence (P50406 whole entry): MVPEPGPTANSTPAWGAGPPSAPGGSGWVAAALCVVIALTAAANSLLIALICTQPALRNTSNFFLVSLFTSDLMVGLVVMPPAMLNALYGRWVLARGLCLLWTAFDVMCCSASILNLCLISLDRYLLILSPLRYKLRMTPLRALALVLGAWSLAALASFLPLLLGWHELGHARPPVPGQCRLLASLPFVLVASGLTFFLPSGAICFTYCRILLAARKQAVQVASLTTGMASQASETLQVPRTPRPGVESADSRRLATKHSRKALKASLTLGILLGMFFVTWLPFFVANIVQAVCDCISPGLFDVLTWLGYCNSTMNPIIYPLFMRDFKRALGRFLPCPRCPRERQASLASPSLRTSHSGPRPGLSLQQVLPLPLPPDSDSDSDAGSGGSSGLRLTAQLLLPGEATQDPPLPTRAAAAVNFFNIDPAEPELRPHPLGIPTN
ASSAY SUMMARY: 5-HT6 radioligand binding assay (SPA format, [N-methyl-3H]-LSD)
MEASUREMENT CONDITIONS: human 5-HT6 receptor membranes, 10 nM [N-methyl-3H]-LSD; Ki by Cheng-Prusoff; read-out: human 5HT6 Ki
Labelling field: enter 1 if recorded Ki is less than 2 nM. Enter -1 if it equals or exceeds that cut-off.

// below: answered compounds
[O-][S+](c1ccccc1)c1cc(Cl)c2oc3c(c2c1)CNCC3 (centres unmarked) [Example 232] ... -1
Cc1ccc(S(=O)(=O)c2ccc3oc4c(c3c2)CNCC4)cc1.Cl [Example 35, hydrochloride] ... -1
CC(C)(O)c1cccc(S(=O)(=O)c2cc(Cl)c3oc4c(c3c2)CNCC4)c1 ... 1
COc1cc(S(=O)(=O)c2ccc(C3CCOC3)cc2)cc2c3c(oc12)CCNC3 (centres unmarked) ... -1
CN(C)C(=O)CN1CCc2oc3c(Cl)cc(S(=O)(=O)c4ccccc4)cc3c2C1 ... -1

**Query** State whether 2 nM exceeds Ki recorded for `COc1cc(S(=O)(=O)c2cccc(C(F)(F)F)c2)cc2c3c(oc12)CCNC3` .
**Result** 1

**Query** Find out if reported Ki for Cl.O=S(=O)(c1cccc(F)c1)c1ccc2oc3c(c2c1)CNCC3 [Example 29, hydrochloride] is less than 2 nM
**Result** -1

**Query** Here's an entry: COc1cc(S(=O)(=O)c2ccccc2)cc2c3c(oc12)CCNC3.Cl [Example 54, hydrochloride] . Is its Ki below 2 nM?
**Result** 1

###

STUDY TARGET: UniProt P50406
ASSAY SUMMARY: 5-HT6 radioligand binding assay (SPA format, [N-methyl-3H]-LSD)
MEASUREMENT CONDITIONS: human 5-HT6 receptor membranes, 10 nM [N-methyl-3H]-LSD; Ki by Cheng-Prusoff; read-out: human 5HT6 Ki
VALUE TYPE: Ki (nM)
Answer format: numeric, nM implied, no suffix.

COc1cc(S(=O)(=O)c2ccc(C(F)(F)F)cc2)cc2c3c(oc12)CCNC3 ... 0.49
COc1ccc(S(=O)(=O)c2ccc3oc4c(c3c2)CNCC4)cc1.Cl [Example 33, hydrochloride] ... 100
CC(CO)N1CCc2oc3c(Cl)cc(S(=O)(=O)c4ccccc4)cc3c2C1 (centres unmarked) ... 3.4

Now consider the entry below.
**Query** I would be grateful if you could share the reported Ki for `Cc1cc(S(=O)(=O)c2cccc(C(F)(F)F)c2)cc2c3c(oc12)CCNC3` .
**Result** 0.22

###

Collected melting point values appear next to each entry.

Examples with their reported melting point follow.
Cl.O=S(=O)(c1ccc2c3c(oc2c1)CC1CCC3N1)n1ccc2ccccc21 (stereo not drawn) [Example 67] ... 192 to 196 °C
CN1CCc2oc3cc(S(=O)(=O)c4ccccc4)ccc3c2C1.Cl [Example 61] ... 242 to 245 °C
Cl.O=S(=O)(c1ccc(F)cc1)c1ccc2oc3c(c2c1)CNCC3 [Example 31] ... 270 to 280 °C
CC1NCCc2oc3c(Cl)cc(S(=O)(=O)c4ccccc4)cc3c21.Cl (single isomer, unassigned; (+)) [Example 82a] ... 295 °C (dec.)
Cl.O=S(=O)(c1cccc(C(F)(F)F)c1)c1ccc2c3c(oc2c1)CCNC3 [Example 63] ... 290 to 294 °C

**Query** # get_value(readout='melting point', item= O=S(=O)(c1ccccc1)c1cc(Cl)c2oc3c(c2c1)CC(O)CC3 (single isomer, unassigned; (-)) [Example 98] )
**Result** 236 to 240 °C

**Query** Look at this compound and give its reported melting point. Cl.O=S(=O)(c1ccccc1)c1cc(F)c2oc3c(c2c1)CNCC3 [Example 52]
**Result** 232 to 250 °C

**Query** Could you tell me which melting point is on file for COc1cc(Cc2ccccc2)cc2c3c(oc12)CCNC3.Cl [Example 96] ?
**Result** 263 to 265 °C

**Query** Recorded melting point for Cl.O=S(=O)(c1cccc(C(F)(F)F)c1)c1ccc2c3c(oc2c1)CC1CCC3N1 (stereo not drawn) [Example 64] , please?
**Result** 178 to 183 °C

Data provenance is patent US9067949B2.
